target: human Dopamine D2L receptor (Homo sapiens, UniProt P14416); construct: expressed in transfected cells; host or cells: CHO cells; assay: In vitro binding affinity for human D2L receptor ([3H]Spiperone binding); settings: human D2L receptor-transfected CHO cell membranes, read-out: D2L pIC50 (converted)
Sequence (P14416 whole entry): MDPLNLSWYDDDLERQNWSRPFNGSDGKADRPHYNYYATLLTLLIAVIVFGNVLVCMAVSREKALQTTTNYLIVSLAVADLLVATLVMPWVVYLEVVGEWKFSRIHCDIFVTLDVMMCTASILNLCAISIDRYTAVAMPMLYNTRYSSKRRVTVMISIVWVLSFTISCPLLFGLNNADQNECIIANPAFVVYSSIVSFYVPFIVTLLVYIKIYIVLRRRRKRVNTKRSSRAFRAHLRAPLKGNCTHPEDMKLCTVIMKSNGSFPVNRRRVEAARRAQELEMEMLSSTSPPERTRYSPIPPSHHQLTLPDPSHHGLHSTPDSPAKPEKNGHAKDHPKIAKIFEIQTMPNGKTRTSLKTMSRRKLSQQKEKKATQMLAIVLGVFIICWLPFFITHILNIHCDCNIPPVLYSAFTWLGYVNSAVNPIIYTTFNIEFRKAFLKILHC
Observable: IC50 (nM)
Give just the numeric value; nM need not be written.

Lab note: measured IC50 of CN(CCO)CCC1CN(CC2CC3c4ccccc4Cc4ccc(F)cc4C3O2)CCO1 (mixture of isomers) was 355

Lab note: measured IC50 of COc1cc(NC(=S)NC2CCN(CC3CC4c5ccccc5Cc5ccc(F)cc5C4O3)CC2)cc(OC)c1OC (stereo not shown) was 20.4

Lab note: measured IC50 of OC1CCN(C[C@@H]2C[C@@H]3c4ccccc4Sc4ccc(F)cc4[C@H]3O2)C1 (relative stereo) was 57.5

Lab note: measured IC50 of CC(C)(C)OC(=O)N1CCN(C(=O)C2CCN(CC3CC4c5ccccc5Cc5ccc(F)cc5C4O3)CC2)CC1 (stereo not shown) was 40.7

====

molecular target: NET (norepinephrine transporter) (Rattus norvegicus, UniProt Q63380); construct: Cortex from rat brain was collected and homogenised; from tissue; host or cells: rat brain cortex; experiment: In vitro determination of NET reuptake inhibition ([3H]Nixosetine binding, rat brain cortex); conditions: rat brain cortex
Sequence (Q63380 1-617): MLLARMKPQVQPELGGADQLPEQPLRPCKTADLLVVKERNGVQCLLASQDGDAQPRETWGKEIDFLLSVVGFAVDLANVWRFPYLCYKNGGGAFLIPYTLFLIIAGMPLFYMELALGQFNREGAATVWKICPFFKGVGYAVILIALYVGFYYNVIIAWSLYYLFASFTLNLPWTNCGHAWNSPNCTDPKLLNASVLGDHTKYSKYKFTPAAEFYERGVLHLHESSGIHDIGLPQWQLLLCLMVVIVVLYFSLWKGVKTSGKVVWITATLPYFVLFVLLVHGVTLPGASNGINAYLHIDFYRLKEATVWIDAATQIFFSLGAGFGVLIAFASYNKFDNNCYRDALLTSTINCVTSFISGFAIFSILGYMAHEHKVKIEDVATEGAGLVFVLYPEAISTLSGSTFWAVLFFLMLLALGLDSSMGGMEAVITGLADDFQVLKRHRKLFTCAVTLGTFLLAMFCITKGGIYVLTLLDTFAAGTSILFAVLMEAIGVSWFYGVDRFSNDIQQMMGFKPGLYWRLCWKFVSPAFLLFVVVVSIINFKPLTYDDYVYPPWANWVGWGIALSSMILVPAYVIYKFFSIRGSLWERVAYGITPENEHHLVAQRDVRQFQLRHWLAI
Observable: NET pIC50

Lab note: measured NET pIC50 of O=C(O)C(=O)O.OCC1CCCN(C[C@H]2C[C@@H]3c4ccccc4Cc4ccc(F)cc4[C@@H]3O2)C1 (single isomer, unassigned) [Compound 149] was <5.52

Lab note: measured NET pIC50 of CC(=O)C1(c2ccccc2)CCN(C[C@H]2C[C@@H]3c4ccccc4Cc4ccc(F)cc4[C@@H]3O2)CC1.O=C(O)C(=O)O was <5

Lab note: measured NET pIC50 of O=C(O)C(=O)O.OCCN1CCCN(C[C@H]2C[C@@H]3c4ccccc4Cc4ccc(F)cc4[C@@H]3O2)CC1 was 5.15

====

molecular target: human Dopamine D2L receptor (Homo sapiens, UniProt P14416); construct: expressed in transfected cells; host or cells: CHO cells; experiment: In vitro binding affinity for human D2L receptor ([3H]Spiperone binding); conditions: human D2L receptor-transfected CHO cell membranes, read-out: D2L pIC50 (converted)
Observable: IC50 (nM)
Give just the numeric value; nM need not be written.

The recorded IC50 with human Dopamine D2L receptor (Homo sapiens, UniProt P14416) for OC1(c2ccc(F)cc2)CCN(CC2CC3c4ccccc4Cc4ccc(F)cc4C3O2)C1 (mixture of isomers) [Compound 41] was 4.27

The recorded IC50 with human Dopamine D2L receptor (Homo sapiens, UniProt P14416) for O=C(NCc1ccccc1)OCC1CCN(CC2CC3c4ccccc4Cc4ccc(F)cc4C3O2)C1 (mixture of isomers) [Compound 24] was 4.27

The recorded IC50 with human Dopamine D2L receptor (Homo sapiens, UniProt P14416) for CC(=O)N1CCC(C(=O)NC2CCN(CC3CC4c5ccccc5Cc5ccc(F)cc5C4O3)CC2)CC1 (stereo not shown) [Compound 224] was 3.39

The recorded IC50 with human Dopamine D2L receptor (Homo sapiens, UniProt P14416) for O=C(NC1CCN(CC2CC3c4ccccc4Cc4ccc(F)cc4C3O2)CC1)c1ccccc1Br (stereo not shown) [Compound 226] was 5.37

The recorded IC50 with human Dopamine D2L receptor (Homo sapiens, UniProt P14416) for OC1CCN(C[C@H]2C[C@@H]3c4ccccc4Cc4ccc(F)cc4[C@@H]3O2)C1 (stereo partly shown) [Compound 1] was 7.41

The recorded IC50 with human Dopamine D2L receptor (Homo sapiens, UniProt P14416) for O=C(C1CCN(CC2CC3c4ccccc4Cc4ccc(F)cc4C3O2)CC1)N1CCC1 (stereo not shown) [Compound 200] was 15.5

The recorded IC50 with human Dopamine D2L receptor (Homo sapiens, UniProt P14416) for O=C(NC(=S)N1CCN(CC2CC3c4ccccc4Cc4ccc(F)cc4C3O2)CC1)c1ccccc1 (stereo not shown) [Compound 111] was 27.5
